Assay: inhibition of 3D7 malaria parasite growth – strain 3D7 (AID 2306);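 further: 0% = DMSO wells and 100% = chloroquine plus artemisinin control wells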
Settings: P. falciparum 3D7 erythrocytic growth, LDH absorbance, 72 h; at 2 µM; stronger effect = higher value
Quick list: growth inhibition per entry.

Compound: c1ccc2[nH]c(-c3ccc(-c4ccc(CN5CCCCC5)cc4)s3)nc2c1
growth inhibition (%): 102
//
Compound: COc1ccc2nccc([C@@H](O)CN3CCC(NC(=O)C(=Cc4ccc(C#N)cc4)c4ccc(-c5ccccc5)cc4)CC3)c2c1
growth inhibition (%): 101
//
Compound: Cc1ccc(NC(=O)Nc2ccc(Cl)c(C(F)(F)F)c2)cc1-c1ccc(C(=O)NCCN2CCOCC2)cc1
growth inhibition (%): 98
//
Compound: Cc1cc(OCCCN2CCC(NS(=O)(=O)c3cccc(Br)c3)CC2)c2ccccc2n1
growth inhibition (%): 95
//
Compound: Cc1ccc(NC(=O)c2ccc(N3CCN(c4ccncc4)CC3)cc2)cc1F
growth inhibition (%): 100
//
Compound: CN1CCN(c2cc(NC(=O)Nc3ccc(-c4ccncc4)c(Cl)c3)ccc2Br)CC1
growth inhibition (%): 101
//
Compound: Cc1cc(NCC2CCN(CC3CCCCC3)C2)nc(Nc2ccc(Cl)cc2)n1 (centres undefined)
growth inhibition (%): 101
//
Compound: COc1cc(OC)cc(-c2nn(-c3ccc([N+](=O)[O-])cc3Cl)c(=S)n2CC2CCCO2)c1 (centres undefined)
growth inhibition (%): 98
//
Compound: Nc1ccc2[nH]cc(C3CCN(CC4CCN(C(=O)/C=C/c5ccc(Cl)c(Cl)c5)CC4)CC3)c2n1
growth inhibition (%): 99

====

Quick list: inhibition per entry.
Assay: human hepatoma cell viability loss – ATP luminescence, cytotoxicity control for P. falciparum antimalarial project, primary screen (AID 2303);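 further: 0% = DMSO wells and 100% = digitonin-killed cells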
Settings: HepG2 viability, 24-48 h, at 10 µM, stronger effect = higher value

Molecule: O=C(C=Cc1ccc(Cl)c(Cl)c1)NCCCCCN1CCC(CCNC(=O)c2sc3ccccc3c2Cl)CC1
inhibition / %: 27
--
Molecule: Cn1c(NC(=O)C2CCCN(C(=O)c3ccc(O)c(-c4ccc(Cl)c(Cl)c4)c3)C2)nc2ccccc21 (stereo not drawn)
inhibition / %: 0
--
Molecule: O=C(C=Cc1ccc(Cl)c(Cl)c1)NCCCCCN1CCCC(CCCNS(=O)(=O)c2cccc(C(F)(F)F)c2)C1 (stereo not drawn)
inhibition / %: 81
--
Molecule: CC(C)CCN1CCC(Oc2cccc(NC(=O)c3ccc(C(F)(F)F)cc3)c2)CC1
inhibition / %: 39
--
Molecule: CCCN(CCCCCCN(CCC)CCc1ccc(O)c(O)c1)CCc1ccc(O)cc1
inhibition / %: 0
--
Molecule: COc1cccc(CCNCc2ccc(-c3cccc(CNC4CCCC4)c3)cc2)c1
inhibition / %: 14
--
Molecule: CC(CO)(CO)NCc1cc2c3ccccc3c(CNC(C)(CO)CO)cc2c2ccccc12
inhibition / %: 40
--
Molecule: COc1ccc(C(F)(F)F)cc1N1CCN(CCCCNC(=O)c2ccc(NC(=O)c3ccc(Cl)cc3)cc2)CC1
inhibition / %: 12
--
Molecule: COc1ccc(C(O)CNC(C)CCc2ccccc2)cc1C(F)(F)F (stereo not drawn)
inhibition / %: 3
--
Molecule: O=C(Nc1ccnc2ccccc12)NC1CCN(Cc2ccccc2)CC1
inhibition / %: 18
--
Molecule: NC1=NC(c2ccccc2)(c2ccccc2)C(=O)N1Cc1ccc(-c2ccncc2)cc1
inhibition / %: 20
--
Molecule: O=C(Nc1ccc2nc3n(c(=O)c2c1)CCCCC3)C(=O)N1CCN(c2ccc(F)cc2)CC1
inhibition / %: 10
--
Molecule: CC(C)Nc1cc(C(=O)N[C@@H](Cc2ccccc2)[C@H](O)CNCc2cccc(C(F)(F)F)c2)c(F)c(N2CCCCS2(=O)=O)c1
inhibition / %: -5
--
Molecule: CCc1c(C)nc(-n2nc(C)cc2NC(=O)CCc2ccccc2)[nH]c1=O
inhibition / %: 48
--
Molecule: O=C(Nc1ccc(-c2csc(-c3nc4ccccc4[nH]3)c2)cc1)Nc1ccsc1
inhibition / %: 50
--
Molecule: COc1ccc2nc(C)cc(Nc3ccc(Oc4ccc(Br)c5ccccc45)c(Cl)c3)c2c1
inhibition / %: 100
--
Molecule: COc1cccc(C(=O)N2CCN(Cc3cccc(NC(=O)c4cccs4)c3)CC2)c1
inhibition / %: 6
--
Molecule: CC(=NN=C(N)N)c1ccc2c(c1)Cc1ccccc1-2
inhibition / %: 44
--
Molecule: CN1CCN(c2ccc(Nc3c(C(N)=O)cnc4cc(-c5ccoc5)ccc34)cc2)CC1
inhibition / %: 14
--
Molecule: CN1CCN(c2ccnc3ccc(NC(=O)N(C)c4ccc(Cl)c(Cl)c4)cc23)CC1
inhibition / %: 5
--
Molecule: COc1ccccc1NC(=O)Nc1ccc(-c2cccc(-c3nc4ccccc4[nH]3)c2)cc1
inhibition / %: 42
--
Molecule: COc1ccc2nccc([C@@H](O)CN3CCC(NCc4ccc5c(c4)N(C)C(=O)CO5)CC3)c2c1
inhibition / %: -3
--
Molecule: COc1cc(Cc2cnc(N)nc2N)cc(CC(C)O)c1O (stereo not drawn)
inhibition / %: -2
--
Molecule: N#Cc1cccc(C(=O)Nc2cccc(-c3ccc(CN4CCCC4)cc3)c2)c1
inhibition / %: 11
--
Molecule: CCn1nc(C(=O)NC2CCOc3ccccc32)c2ccccc2c1=O (stereo not drawn)
inhibition / %: 13
--
Molecule: Cc1n[nH]c(C)c1C1CCN(CC2CCC(NC(=O)/C=C/c3ccc(Cl)c(Cl)c3)CC2)CC1 (stereo not drawn)
inhibition / %: 15
--
Molecule: O=C(Nc1cc(Cl)cc(Cl)c1)c1cc(Cl)c(=O)n(Cc2ccc(Cl)cc2)c1
inhibition / %: 7
--
Molecule: CCCC(=O)Nc1ccc(Nc2nc(C)cc(N3CCCC3)n2)cc1
inhibition / %: 31
--
Molecule: COc1ccc(Nc2nccc(NCCNC(=O)c3cc4ccccc4s3)n2)cc1
inhibition / %: 6
--
Molecule: CN1CCN(c2cc(NC(=O)c3ccc(-c4ccc(C#N)cc4)cc3)ccc2Cl)CC1
inhibition / %: 29
--
Molecule: Cc1cc(=O)c(-c2ccc(Sc3ccc(Cl)cc3)cc2)c(C)[nH]1
inhibition / %: -3
--
Molecule: CN1CCC(N(Cc2ccc(N3CCN(Cc4c[nH]c5ccc(Cl)cc45)CC3)nc2)C2CC2)CC1
inhibition / %: 96
--
Molecule: Cc1ccc(C(NC(=O)C2CCCCC2)c2ccc3cccnc3c2O)cc1 (stereo not drawn)
inhibition / %: 69
--
Molecule: Cc1noc(C)c1-c1cccc(CNCc2cccc(-c3ccc(-c4nc5ccc(C(F)(F)F)cc5[nH]4)s3)c2)c1
inhibition / %: 23
--
Molecule: CC(O)C1CCCCN1C(=O)c1cccc(-c2cccc(-c3nc4ccc(C(F)(F)F)cc4[nH]3)c2)c1 (stereo not drawn)
inhibition / %: 32
--
Molecule: Cc1cc(C(=O)N(Cc2ccc(-c3ccc(CNCCc4ccc(S(C)(=O)=O)cc4)cn3)cc2)C(C)CN(C)C)ccc1[N+](=O)[O-] (stereo not drawn)
inhibition / %: 17
--
Molecule: O=C(Nc1ccc(-c2nc3ccccc3[nH]2)cc1)c1ccc(S(=O)(=O)N2CCCCC2)cc1
inhibition / %: 23
--
Molecule: O=C(Nc1ccc(F)c(C(F)(F)F)c1)NC1CCN(CCCCCNC(=O)[C@@H]2C[C@H]2c2ccc(Cl)c(Cl)c2)CC1
inhibition / %: 96
